Target: Angiotensin II receptor (AT-1) type-1 (Rattus norvegicus, UniProt P29089+P25095)
Assay: Binding affinity expressed as IC50 to the Angiotensin II receptor, type 1, from rat liver membrane
Parameter: IC50 (nM)

> print(dat)
                                 cpd.smiles  output.unit  value.reported
1  CCCCc1ncc(/C=C2/C(=O)NC(=O)N2Cc2ccc(Cl)cc2)n1Cc1ccc(C(=O)O)cc1           nM               3
2  CCCCc1ncc(/C=C2/C(=O)N(CCCC)C(=O)N2Cc2csc(C)n2)n1Cc1ccc(C(=O)O)cc1           nM             1.2
3  CCCCc1ncc(/C=C2\C(=O)NC(=O)N2CCCC)n1Cc1ccc(-c2ccccc2C(=O)OC)cc1           nM             9.9
4  CCCCc1ncc(/C=C2/C(=O)N(CCCC)C(=O)N2Cc2ccc3ccccc3c2)n1Cc1ccc(C(=O)OC)cc1           nM             104

* * *

Biological target: Angiotensin II receptor (AT-1) type-1 (Rattus norvegicus, UniProt P29089+P25095)
Experiment: Binding affinity expressed as IC50 to the Angiotensin II receptor, type 1, from rat liver membrane
Hi! Just check whether IC50 is below 5 nM. Below gives Yes, equal or above gives No.

> print(dat)
                                  cpd.smiles  class
 1  CCCCc1ncc(/C=C2/C(=O)N(CCCC)C(=O)N2Cc2csc(N)n2)n1Cc1ccc(C(=O)OC)cc1    Yes
 2  CCCCc1ncc(/C=C2/C(=O)N(CCCC)C(=O)N2Cc2cc(Br)cs2)n1Cc1ccc(C(=O)OC)cc1     No
 3  CCCCc1ncc(/C=C2\C(=O)N(CCCC)C(=O)N2CCCC)n1Cc1ccc(C(=O)O)cc1    Yes
 4  CCCCc1ncc(/C=C2/C(=O)N(CCCC)C(=O)N2CCCC(F)(F)F)n1Cc1ccc(C(=O)OC)cc1     No
 5  CCCCc1ncc(/C=C2/C(=O)N(CO)C(=O)N2Cc2csc(C)n2)n1Cc1ccc(C(=O)OC)cc1     No
 6  CCCCc1ncc(/C=C2/C(=O)N(CCCC)C(=O)N2CCCC)n1Cc1ccc(C(=O)OC)cc1     No
 7  CCCCc1ncc(/C=C2/C(=O)NC(=O)N2CCCC)n1Cc1ccc(-c2ccccc2C(=O)OC)cc1     No
 8  CCCCCCN1C(=O)N(CCCC)C(=O)/C1=C/c1cnc(CCCC)n1Cc1ccc(C(=O)OC)cc1     No
 9  CCCCc1ncc(/C=C2/C(=O)N(CCCC)C(=O)N2Cc2ccccn2)n1Cc1ccc(C(=O)OC)cc1     No
10  CCCCc1ncc(/C=C2/C(=O)N(CCCC)C(=O)N2CCc2ccsc2)n1Cc1ccc(C(=O)OC)cc1     No
11  CCCCc1ncc(/C=C2/C(=O)N(CCCC)C(=O)N2Cc2ccc(C(=O)OC)cc2)n1Cc1ccc(C(=O)OC)cc1     No
12  CCCCc1ncc(/C=C2/C(=O)N(CCCC)C(=O)N2Cc2ccc(C)s2)n1Cc1ccc(C(=O)O)cc1    Yes
13  CCCCc1ncc(/C=C2\C(=O)N(CCCC)C(=O)N2Cc2csc(C)n2)n1Cc1ccc(C(=O)O)cc1    Yes
14  CCCCc1ncc(/C=C2/C(=O)NC(=O)N2CCC(C)C)n1Cc1ccc(C(=O)O)cc1     No
15  CCCCc1ncc(/C=C2/C(=O)N(CCCC(F)(F)F)C(=O)N2Cc2csc(C)n2)n1Cc1ccc(C(=O)OC)cc1     No
16  CCCCc1ncc(/C=C2/C(=O)N(CCCC)C(=O)N2Cc2csc(C)n2)n1Cc1ccc(C2(C(=O)OC)CCCC2)cc1     No
17  CCCCc1ncc(/C=C2/C(=O)N(CCCC)C(=O)N2Cc2csc(C)c2)n1Cc1ccc(C(=O)O)cc1    Yes
18  CCCCc1ncc(/C=C2/C(=O)NC(=O)N2CCCC)n1Cc1ccc(NS(=O)(=O)C(F)(F)F)cc1    Yes
19  CCCCc1ncc(/C=C2/C(=O)N(CCSC)C(=O)N2Cc2csc(C)n2)n1Cc1ccc(C(=O)OC)cc1     No
20  CCCCc1ncc(/C=C2/C(=O)N(CCCC)C(=O)N2Cc2nn[nH]n2)n1Cc1ccc(C(=O)OC)cc1     No
21  CCCCc1ncc(/C=C2/C(=O)N(CC)C(=O)N2Cc2csc(C)n2)n1Cc1ccc(C(=O)OC)cc1     No
22  CCCCc1ncc(/C=C2/C(=O)N(CCCC)C(=O)N2Cc2ccsc2)n1Cc1ccc(C(=O)OC)cc1    Yes
23  CCCCc1ncc(/C=C2/C(=O)N(CCCC)C(=O)N2Cc2csc(C)n2)n1Cc1ccc(C2(C(=O)O)CCCC2)cc1    Yes
24  CCCCc1ncc(/C=C2/C(=O)N(CCCC)C(=O)N2Cc2ccccc2)n1Cc1ccc(C(=O)OC)cc1     No
25  CCCCc1ncc(/C=C2/C(=O)N(CCCC)C(=O)N2Cc2csc(C)n2)n1Cc1ccc(C(=O)OC)cc1    Yes
26  CCCCc1ncc(/C=C2/C(=O)N(CCCC)C(=O)N2Cc2ccc(C(=O)OC)s2)n1Cc1ccc(C(=O)OC)cc1    Yes
27  CCCCCCN1C(=O)/C(=C/c2cnc(CCCC)n2Cc2ccc(C(=O)OC)cc2)N(Cc2csc(C)n2)C1=O     No
28  CCCCc1ncc(/C=C2/C(=O)N(CCCC)C(=O)N2Cc2ccc(Cl)cc2)n1Cc1ccc(C(=O)OC)cc1     No
29  CCCCc1ncc(/C=C2/C(=O)N(CCCC)C(=O)N2Cc2csc(N)n2)n1Cc1ccc(C(=O)O)cc1    Yes
30  CCCCc1ncc(/C=C2\C(=O)N(CCCC)C(=O)N2Cc2csc(N)n2)n1Cc1ccc(C(=O)O)cc1    Yes
31  CCCCc1ncc(/C=C2/C(=O)N(CCCC)C(=O)N2CC2CCCCC2)n1Cc1ccc(C(=O)OC)cc1    Yes
32  CCCCc1ncc(/C=C2\C(=O)NC(=O)N2CCCC)n1Cc1ccc(-c2nn[nH]n2)cc1    Yes

* * *

Target: Angiotensin II receptor (AT-1) type-1 (Rattus norvegicus, UniProt P29089+P25095)
Assay: Binding affinity expressed as IC50 to the Angiotensin II receptor, type 1, from rat liver membrane
// classify: if (IC50 < 30 nM) 1 else 0

> print(dat)
                                 cpd.smiles                             target.entity  class
1  CCCCc1ncc(/C=C2/C(=O)N(CCC)C(=O)N2Cc2csc(C)n2)n1Cc1ccc(C(=O)OC)cc1  Angiotensin II receptor (AT-1) type-1 (Rattus norvegicus, UniProt P29089+P25095)      1
2  CCCCc1ncc(/C=C2/C(=O)N(CCCC)C(=O)N2Cc2ccc(O)c(O)c2)n1Cc1ccc(C(=O)OC)cc1  Angiotensin II receptor (AT-1) type-1 (Rattus norvegicus, UniProt P29089+P25095)      1
3  CCCCc1ncc(/C=C2/C(=O)N(CCCC)C(=O)N2CCc2ccccc2)n1Cc1ccc(C(=O)OC)cc1  Angiotensin II receptor (AT-1) type-1 (Rattus norvegicus, UniProt P29089+P25095)      0
4  CCCCc1ncc(/C=C2/C(=O)NC(=O)N2CCCC)n1Cc1ccc(C(=O)OC)cc1  Angiotensin II receptor (AT-1) type-1 (Rattus norvegicus, UniProt P29089+P25095)      1
5  CCCCc1ncc(/C=C2/C(=O)N(CCCC)C(=O)N2Cc2cc(C)cs2)n1Cc1ccc(C(=O)O)cc1  Angiotensin II receptor (AT-1) type-1 (Rattus norvegicus, UniProt P29089+P25095)      1
6  CCCCc1ncc(/C=C2/C(=O)N(CCCC)C(=O)N2Cc2cccc[n+]2[O-])n1Cc1ccc(C(=O)OC)cc1  Angiotensin II receptor (AT-1) type-1 (Rattus norvegicus, UniProt P29089+P25095)      0
7  CCCCc1ncc(/C=C2/C(=O)N(CCCC)C(=O)N2Cc2c[nH]cn2)n1Cc1ccc(C(=O)OC)cc1  Angiotensin II receptor (AT-1) type-1 (Rattus norvegicus, UniProt P29089+P25095)      0
8  CCCCc1ncc(/C=C2/C(=O)N(CCCC)C(=O)N2Cc2sccc2C)n1Cc1ccc(C(=O)OC)cc1  Angiotensin II receptor (AT-1) type-1 (Rattus norvegicus, UniProt P29089+P25095)      1

* * *

Target: Angiotensin II receptor type-1 (Oryctolagus cuniculus)
Assay: Inhibition of angiotensin II induced contraction in rabbit aortic ring, activity is expressed as IC50
Below, each entry is listed alongside its reported IC50.
Parameter: IC50 (nM)

> print(dat)
                                  cpd.smiles  output.unit  qualifier.sign  value.reported
 1  CCCCc1ncc(/C=C2/C(=O)N(CCCC)C(=O)N2Cc2csc(N)n2)n1Cc1ccc(C(=O)OC)cc1           nM               =             290
 2  CCCCCCN1C(=O)/C(=C/c2cnc(CCCC)n2Cc2ccc(C(=O)OC)cc2)N(Cc2csc(C)n2)C1=O           nM               >             100
 3  CCCCc1ncc(/C=C2/C(=O)N(CCCC)C(=O)N2Cc2ccc(C)s2)n1Cc1ccc(C(=O)O)cc1           nM               =             5.3
 4  CCCCc1ncc(/C=C2/C(=O)N(CCCC)C(=O)N2Cc2cc(C)cs2)n1Cc1ccc(C(=O)O)cc1           nM               =              21
 5  CCCCc1ncc(/C=C2/C(=O)N(CCCC)C(=O)N2Cc2csc(C)n2)n1Cc1ccc(C(=O)OC)cc1           nM               =             350
 6  CCCCc1ncc(/C=C2/C(=O)N(CCCC)C(=O)N2Cc2ccno2)n1Cc1ccc(C(=O)OC)cc1           nM               >             100
 7  CCCCc1ncc(/C=C2/C(=O)NC(=O)N2CCCC)n1Cc1ccc(-c2nn[nH]n2)cc1           nM               =              40
 8  CCCCc1ncc(/C=C2/C(=O)NC(=O)N2CCCC)n1Cc1ccc(C(=O)OC)cc1           nM               =              30
 9  CCCCc1ncc(/C=C2/C(=O)NC(=O)N2Cc2cccs2)n1Cc1ccc(C(=O)O)cc1           nM               =              18
10  CCCCc1ncc(/C=C2/C(=O)N(CCCC)C(=O)N2Cc2ccc(Cl)cc2)n1Cc1ccc(C(=O)OC)cc1           nM               =             500
11  CCCCc1ncc(/C=C2/C(=O)N(CCCC)C(=O)N2CCCC)n1Cc1ccc(C(=O)OC)cc1           nM               =             460
12  CCCCc1ncc(/C=C2\C(=O)NC(=O)N2CCCC)n1Cc1ccc(C(=O)O)cc1           nM               =              44
13  CCCCc1ncc(/C=C2/C(=O)N(CCCC)C(=O)N2Cc2ccsc2)n1Cc1ccc(C(=O)O)cc1           nM               =              10
14  CCCCc1ncc(/C=C2\C(=O)NC(=O)N2CCC(C)C)n1Cc1ccc(C(=O)O)cc1           nM               =              74
15  CCCCc1ncc(/C=C2/C(=O)NC(=O)N2CCC(C)C)n1Cc1ccc(C(=O)O)cc1           nM               =              32
16  CCCCc1ncc(/C=C2/C(=O)NC(=O)N2CCCC)n1Cc1ccc(NS(=O)(=O)C(F)(F)F)cc1           nM               =             120
17  CCCCc1ncc(/C=C2\C(=O)NC(=O)N2Cc2ccccc2)n1Cc1ccc(C(=O)O)cc1           nM               >             100
18  CCCCc1ncc(/C=C2/C(=O)N(CCCC)C(=O)N2Cc2csc(C)n2)n1Cc1ccc(C(=O)O)cc1           nM               =             2.6
